Settings: 333 K; 101.33 kPa; Liquid; Falling or rolling sphere viscometry
Attribute: viscosity

Smiles structure: CCCCCC[n+]1ccn(C)c1.O=S(=O)([N-]S(=O)(=O)C(F)(F)F)C(F)(F)F
viscosity (mPa·s): 19.29
//
Smiles structure: CCCCCn1cc[n+](C)c1.O=S(=O)([N-]S(=O)(=O)C(F)(F)F)C(F)(F)F
viscosity (mPa·s): 18.52
//
Smiles structure: CCCC[n+]1ccn(C)c1.O=S(=O)([N-]S(=O)(=O)C(F)(F)F)C(F)(F)F
viscosity (mPa·s): 16
//
Smiles structure: CCCCCCCCCCn1cc[n+](C)c1.O=S(=O)([N-]S(=O)(=O)C(F)(F)F)C(F)(F)F
viscosity (mPa·s): 29.3
//
Smiles structure: CCn1cc[n+](C)c1.O=S(=O)([N-]S(=O)(=O)C(F)(F)F)C(F)(F)F
viscosity (mPa·s): 12.42
//
Smiles structure: CCCn1cc[n+](C)c1.O=S(=O)([N-]S(=O)(=O)C(F)(F)F)C(F)(F)F
viscosity (mPa·s): 14.82

----------
Details: 313 K; 101.33 kPa; Liquid; Concentric cylinders viscometry
Attribute: viscosity

Smiles structure: CCCCCC[n+]1ccn(C)c1.O=S(=O)([N-]S(=O)(=O)C(F)(F)F)C(F)(F)F
viscosity [mPa·s]: 37.47
//
Smiles structure: CCCCCCCCCCn1cc[n+](C)c1.O=S(=O)([N-]S(=O)(=O)C(F)(F)F)C(F)(F)F
viscosity [mPa·s]: 59.37
//
Smiles structure: CCCCCCCCCCCCCCn1cc[n+](C)c1.O=S(=O)([N-]S(=O)(=O)C(F)(F)F)C(F)(F)F
viscosity [mPa·s]: 98.04
//
Smiles structure: CCCCCCCn1cc[n+](C)c1.O=S(=O)([N-]S(=O)(=O)C(F)(F)F)C(F)(F)F
viscosity [mPa·s]: 42.28
//
Smiles structure: CCCn1cc[n+](C)c1.O=S(=O)([N-]S(=O)(=O)C(F)(F)F)C(F)(F)F
viscosity [mPa·s]: 26.13
//
Smiles structure: CCCCCCCCCCCCn1cc[n+](C)c1.O=S(=O)([N-]S(=O)(=O)C(F)(F)F)C(F)(F)F
viscosity [mPa·s]: 74.49
//
Smiles structure: CCn1cc[n+](C)c1.O=S(=O)([N-]S(=O)(=O)C(F)(F)F)C(F)(F)F
viscosity [mPa·s]: 20.37
//
Smiles structure: CCCC[n+]1ccn(C)c1.O=S(=O)([N-]S(=O)(=O)C(F)(F)F)C(F)(F)F
viscosity [mPa·s]: 28.28
//
Smiles structure: CCCCCn1cc[n+](C)c1.O=S(=O)([N-]S(=O)(=O)C(F)(F)F)C(F)(F)F
viscosity [mPa·s]: 31.43
//
Smiles structure: CCCCCCCCn1cc[n+](C)c1.O=S(=O)([N-]S(=O)(=O)C(F)(F)F)C(F)(F)F
viscosity [mPa·s]: 47.5

----------
Details: 333 K; 101.33 kPa; Liquid; Concentric cylinders viscometry
Attribute: viscosity
Measurement kind: viscosity (mPa·s)

Smiles structure: CCCCCC[n+]1ccn(C)c1.O=S(=O)([N-]S(=O)(=O)C(F)(F)F)C(F)(F)F
Unit spec: mPa·s
Measured: 19.2
--
Smiles structure: CCCCCCCCCCCCn1cc[n+](C)c1.O=S(=O)([N-]S(=O)(=O)C(F)(F)F)C(F)(F)F
Unit spec: mPa·s
Measured: 34.01
--
Smiles structure: CCCn1cc[n+](C)c1.O=S(=O)([N-]S(=O)(=O)C(F)(F)F)C(F)(F)F
Unit spec: mPa·s
Measured: 14.5
--
Smiles structure: CCCCCCCCn1cc[n+](C)c1.O=S(=O)([N-]S(=O)(=O)C(F)(F)F)C(F)(F)F
Unit spec: mPa·s
Measured: 23.35
--
Smiles structure: CCCCCCCCCCn1cc[n+](C)c1.O=S(=O)([N-]S(=O)(=O)C(F)(F)F)C(F)(F)F
Unit spec: mPa·s
Measured: 28.12

----------
Conditions: 393 K; 101.33 kPa; Liquid; Falling or rolling sphere viscometry
± gives the expanded uncertainty stated by the source.
Measurement kind: viscosity

Smiles structure: CCCC[n+]1ccn(C)c1.O=S(=O)([N-]S(=O)(=O)C(F)(F)F)C(F)(F)F
Measured: 4.785 ± 0.24 mPa·s
--
Smiles structure: CCCCCCCCCCn1cc[n+](C)c1.O=S(=O)([N-]S(=O)(=O)C(F)(F)F)C(F)(F)F
Measured: 6.8 ± 0.34 mPa·s
--
Smiles structure: CCCCCC[n+]1ccn(C)c1.O=S(=O)([N-]S(=O)(=O)C(F)(F)F)C(F)(F)F
Measured: 5.28 ± 0.27 mPa·s
--
Smiles structure: CCCCCn1cc[n+](C)c1.O=S(=O)([N-]S(=O)(=O)C(F)(F)F)C(F)(F)F
Measured: 5.15 ± 0.26 mPa·s

----------
Details: 328 K; 101.33 kPa; Liquid; Concentric cylinders viscometry
Attribute: viscosity
Measurement kind: viscosity (mPa·s)

Smiles structure: CCCCCn1cc[n+](C)c1.O=S(=O)([N-]S(=O)(=O)C(F)(F)F)C(F)(F)F
Unit spec: mPa·s
Measured: 19.2
//
Smiles structure: CCCCCCCn1cc[n+](C)c1.O=S(=O)([N-]S(=O)(=O)C(F)(F)F)C(F)(F)F
Unit spec: mPa·s
Measured: 24.81
//
Smiles structure: CCCC[n+]1ccn(C)c1.O=S(=O)([N-]S(=O)(=O)C(F)(F)F)C(F)(F)F
Unit spec: mPa·s
Measured: 17.66
//
Smiles structure: CCCn1cc[n+](C)c1.O=S(=O)([N-]S(=O)(=O)C(F)(F)F)C(F)(F)F
Unit spec: mPa·s
Measured: 16.58
//
Smiles structure: CCCCCCCCCCCCn1cc[n+](C)c1.O=S(=O)([N-]S(=O)(=O)C(F)(F)F)C(F)(F)F
Unit spec: mPa·s
Measured: 40.64
//
Smiles structure: CCCCCCCCCCCCCCn1cc[n+](C)c1.O=S(=O)([N-]S(=O)(=O)C(F)(F)F)C(F)(F)F
Unit spec: mPa·s
Measured: 51.68
//
Smiles structure: CCCCCC[n+]1ccn(C)c1.O=S(=O)([N-]S(=O)(=O)C(F)(F)F)C(F)(F)F
Unit spec: mPa·s
Measured: 22.35
//
Smiles structure: CCCCCCCCCCn1cc[n+](C)c1.O=S(=O)([N-]S(=O)(=O)C(F)(F)F)C(F)(F)F
Unit spec: mPa·s
Measured: 33.32
//
Smiles structure: CCn1cc[n+](C)c1.O=S(=O)([N-]S(=O)(=O)C(F)(F)F)C(F)(F)F
Unit spec: mPa·s
Measured: 13.68
//
Smiles structure: CCCCCCCCn1cc[n+](C)c1.O=S(=O)([N-]S(=O)(=O)C(F)(F)F)C(F)(F)F
Unit spec: mPa·s
Measured: 27.43

----------
Conditions: 318 K; 101.33 kPa; Liquid; Concentric cylinders viscometry
± gives the expanded uncertainty stated by the source.
Measurement kind: viscosity

Smiles structure: CCCCCCCCn1cc[n+](C)c1.O=S(=O)([N-]S(=O)(=O)C(F)(F)F)C(F)(F)F
Measured: 39.09 ± 2 mPa·s
//
Smiles structure: CCCCCCCCCCCCn1cc[n+](C)c1.O=S(=O)([N-]S(=O)(=O)C(F)(F)F)C(F)(F)F
Measured: 60.08 ± 3 mPa·s
//
Smiles structure: CCCn1cc[n+](C)c1.O=S(=O)([N-]S(=O)(=O)C(F)(F)F)C(F)(F)F
Measured: 22.23 ± 1.1 mPa·s
//
Smiles structure: CCn1cc[n+](C)c1.O=S(=O)([N-]S(=O)(=O)C(F)(F)F)C(F)(F)F
Measured: 17.69 ± 0.9 mPa·s
//
Smiles structure: CCCCCC[n+]1ccn(C)c1.O=S(=O)([N-]S(=O)(=O)C(F)(F)F)C(F)(F)F
Measured: 31.19 ± 1.6 mPa·s
//
Smiles structure: CCCCCn1cc[n+](C)c1.O=S(=O)([N-]S(=O)(=O)C(F)(F)F)C(F)(F)F
Measured: 26.38 ± 1.3 mPa·s
//
Smiles structure: CCCCCCCn1cc[n+](C)c1.O=S(=O)([N-]S(=O)(=O)C(F)(F)F)C(F)(F)F
Measured: 34.99 ± 1.8 mPa·s
//
Smiles structure: CCCCCCCCCCn1cc[n+](C)c1.O=S(=O)([N-]S(=O)(=O)C(F)(F)F)C(F)(F)F
Measured: 48.36 ± 2.4 mPa·s
//
Smiles structure: CCCCCCCCCCCCCCn1cc[n+](C)c1.O=S(=O)([N-]S(=O)(=O)C(F)(F)F)C(F)(F)F
Measured: 78.06 ± 3.9 mPa·s
//
Smiles structure: CCCC[n+]1ccn(C)c1.O=S(=O)([N-]S(=O)(=O)C(F)(F)F)C(F)(F)F
Measured: 23.92 ± 1.2 mPa·s
